Reported SCD5 % Max Inhibition is given for each of the following compounds.
Molecular target: SCD5 (Homo sapiens)
Construct: host or cells: S. cerevisiae ole1Δ strain (W303 pdr1Δ pdr3Δ background), plasmid pRS316 with TDH3 promoter and CYC1 terminator
Sequence (Q86SK9 1-330): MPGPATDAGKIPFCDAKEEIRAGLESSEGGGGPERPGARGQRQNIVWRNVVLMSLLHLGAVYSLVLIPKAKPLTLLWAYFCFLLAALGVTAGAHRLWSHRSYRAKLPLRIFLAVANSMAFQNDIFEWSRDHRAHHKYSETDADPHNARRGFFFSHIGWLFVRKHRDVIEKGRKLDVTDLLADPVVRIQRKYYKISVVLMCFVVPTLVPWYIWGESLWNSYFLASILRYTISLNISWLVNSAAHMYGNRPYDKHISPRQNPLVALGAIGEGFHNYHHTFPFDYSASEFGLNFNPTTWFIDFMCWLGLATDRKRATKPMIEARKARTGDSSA
Assay: Growth inhibition of humanized yeast strain expressing SCD5 as sole desaturase
Type: cell-based
Conditions: humanized yeast strain expressing SCD5
Give the quantity in %, number only.

compound=COc1cc(-c2noc(C3CCN(C(=O)CNC(=O)c4ccccc4)CC3)n2)ccc1OC1CC1 metricname="SCD5 % Max Inhibition" unittag=% measurement=61.88

// fetch SCD5 % Max Inhibition; item: "Cc1nn(C)c2cc(-c3noc(C4CCN(C(=O)CNC(=O)c5ccc(C(F)(F)F)cc5)CC4)n3)ccc12" ; system: SCD5 (Homo sapiens)
20.6

// fetch SCD5 % Max Inhibition; item: "Cc1nnc(C)c2cc(-c3noc(C4CCN(C(=O)CNC(=O)c5ccccc5)CC4)n3)ccc12" ; system: SCD5 (Homo sapiens)
13.93

// fetch SCD5 % Max Inhibition; item: "COc1ccc(-c2coc(C3CCN(C(=O)CNC(=O)c4ccccc4)CC3)n2)cc1OC" ; system: SCD5 (Homo sapiens)
74.18

// fetch SCD5 % Max Inhibition; item: "CCOc1ccc(-c2noc(C3CCN(C(=O)C4CN(C(=O)c5ccccc5)C4)CC3)n2)cc1OC" ; system: SCD5 (Homo sapiens)
45.34

###

target: SCD5 (Homo sapiens, UniProt Q86SK9); construct: host or cells: S. cerevisiae ole1Δ strain (W303 pdr1Δ pdr3Δ background), plasmid pRS316 with TDH3 promoter and CYC1 terminator; assay: Growth inhibition of humanized yeast strain expressing SCD5 as sole desaturase; type: cell-based; conditions: humanized yeast strain expressing SCD5
pIC50: −log10 of the molar value.
metricName: pIC50

molecule="CC(C)n1ncc2ccc(-c3noc(C4CCN(C(=O)OC5(C)CC5)CC4(F)F)n3)cc21 (stereo not shown)" measurement=5.27

Return value of pIC50 for input "COc1cccc(-c2noc(C3CCN(C(=O)CNC(=O)c4ccccc4)CC3)n2)c1" , no commentary.
< 4.35

Return value of pIC50 for input "CC(C)n1ncc2ccc(-c3noc(C4CCN(C(=O)c5ncc(Cl)s5)CC4)n3)cc21" , no commentary.
6.45

Return value of pIC50 for input "CCN(Cc1nc(-c2ccccc2)no1)C(=O)Cc1cccc2ccccc12" , no commentary.
< 4.35

Return value of pIC50 for input "Cc1nn(C)c2cc(-c3noc(C4CCN(C(=O)c5cc(F)ccc5C(F)(F)F)CC4)n3)ccc12" , no commentary.
< 4.35

Return value of pIC50 for input "Cc1nn(C(C)C)c2cc(-c3noc(C4CCN(C(=O)OC(C)(C)C)CC4)n3)ccc12" , no commentary.
< 4.35

Return value of pIC50 for input "COc1ccc(-c2nsc(C3CCN(C(=O)CNC(=O)c4ccccc4)CC3)n2)cc1OC" , no commentary.
< 4.35

Return value of pIC50 for input Cc1nn(C)c2cc(-c3noc(C4CCN(C(=O)C(CO)N5Cc6ccccc6C5=O)CC4)n3)ccc12 (stereo not shown) , no commentary.
< 4.35

Return value of pIC50 for input "CC(C)n1ncc2ccc(-c3noc(C4CCN(C(=O)CNC(=O)c5cccc(C#N)c5)CC4)n3)cc21" , no commentary.
< 4.35
